Data provenance is the supplement of paper PMC13380429.

# Test system: U2OS
# Test: drug sensitivity score (DSS) for viability; higher = more toxic; extreme values may be limits of the assay
# Condition context: 72 h
Item-by-item account of drug sensitivity score
API note: the answer field is a bare number with no unit suffix.

Hello, I am looking for reported drug sensitivity score with U2OS for Cn1cc(C2=C(c3ccc(Cl)cc3Cl)C(=O)NC2=O)c2ccccc21 . Could you help?
0

Hello, I am looking for reported drug sensitivity score with U2OS for COc1c(C)cnc(Cn2cc(C#CCC(C)(C)O)c3c(Cl)nc(N)nc32)c1C . Could you help?
17.3

Hello, I am looking for reported drug sensitivity score with U2OS for O=C(O)CCc1cc(I)c(Oc2ccc(O)cc2)c(I)c1 . Could you help?
0

Hello, I am looking for reported drug sensitivity score with U2OS for NC(=O)NCCN1CCN(c2cccc(C(F)(F)F)c2)CC1 . Could you help?
0

Hello, I am looking for reported drug sensitivity score with U2OS for CC(C)(CO)c1cc2cc(NC(=O)C3(c4ccc5c(c4)OC(F)(F)O5)CC3)c(F)cc2n1C[C@@H](O)CO . Could you help?
0

Hello, I am looking for reported drug sensitivity score with U2OS for C#CCC(Cc1cnc2nc(N)nc(N)c2n1)c1ccc(C(=O)N[C@@H](CCC(=O)O)C(=O)O)cc1 (stereo partly drawn) [pralatrexate] . Could you help?
0

Hello, I am looking for reported drug sensitivity score with U2OS for Nc1nnc(Sc2ncc([N+](=O)[O-])s2)s1 . Could you help?
6.5

// switching to the query molecule
Hello, I am looking for reported drug sensitivity score with U2OS for C/C=C1/[C@H](O[C@@H]2O[C@H](CO)[C@@H](O)[C@H](O)[C@H]2O)OC=C(C(=O)OC)[C@H]1CC(=O)OCCc1ccc(O)c(O)c1 . Could you help?
0

----------
# System: A549-ACE2
# Test: drug-induced phospholipidosis relative to tamoxifen; higher = more phospholipidosis
# Condition context: 3.33333 µM; 48 h
Item-by-item account of drug-induced phospholipidosis
# number only, unit % dropped from output

Give its drug-induced phospholipidosis value. Item: CCCCN1[C@@H]2CC[C@H]1C[C@@H](OC(c1ccc(F)cc1)c1ccc(F)cc1)C2
63.9

Give its drug-induced phospholipidosis value. Item: Cc1cccc(Nc2nc(-c3ccncc3)cs2)c1
87.3

Give its drug-induced phospholipidosis value. Item: CN(Cc1ccc(C(C)(C)C)cc1)Cc1cccc2ccccc12
-1.99

Further cases:
Give its drug-induced phospholipidosis value. Item: Nc1nccc(Oc2ccc(NC(=O)c3c[nH]cc(-c4ccc(F)cc4)c3=O)cc2F)c1Cl
-0.29

----------
Item-by-item account of cell viability
# Tested on: Vero E6
# Test: cell viability relative to DMSO; higher = less toxic
# Condition context: 72 h; 1000 nM
# number only, unit % dropped from output

Some solved cases for reference:
Give its cell viability value. Item: C[C@H](NC[C@H](O)CP(=O)(O)Cc1ccccc1)c1ccc(Cl)c(Cl)c1
94.8

Give its cell viability value. Item: NC(=O)C[S+]([O-])C(c1ccccc1)c1ccccc1 (centres undefined)
88.6

Give its cell viability value. Item: CC[C@H](C)C(=O)O[C@H]1C[C@@H](C)C=C2C=C[C@H](C)[C@H](CC[C@@H]3C[C@@H](O)CC(=O)O3)[C@H]21
102

Give its cell viability value. Item: C[C@]12C=CC(=O)C=C1CC[C@@H]1[C@@H]2[C@@H](O)C[C@@]2(C)[C@H]1CC[C@]2(O)C(=O)COP(=O)(O)O [prednisolone-sodium-phosphate]
101

Give its cell viability value. Item: CNC(=O)CN(CCN(CCN(CC(=O)[O-])CC(=O)NC)CC(=O)[O-])CC(=O)[O-].[Gd+3] [gadodiamide]
97.9

Give its cell viability value. Item: C[C@@H](NC(=O)CCc1nc2ccccc2c(=O)[nH]1)c1ccccc1
94.2

Give its cell viability value. Item: NC(=O)Nc1cc(-c2cccc(F)c2)sc1C(=O)N[C@H]1CCCNC1
84.6

Give its cell viability value. Item: Oc1cc2c(cc1O)CN(C(=S)NCCc1ccc(Cl)cc1)CCC2 [capsazepine]
92.2

// switching to the query compound
Give its cell viability value. Item: Fc1ccc(C(c2ccccc2)(c2ccccc2F)n2ccnc2)cc1 (centres undefined)
118

----------
# Tested on: A549-ACE2
# Test: drug-induced phospholipidosis relative to tamoxifen; higher = more phospholipidosis
# Condition context: 30 µM; 24 h
Item-by-item account of drug-induced phospholipidosis
# number only, unit % dropped from output

Some solved cases for reference:
Give its drug-induced phospholipidosis value. Item: Nc1nccc(Oc2ccc(NC(=O)c3c[nH]cc(-c4ccc(F)cc4)c3=O)cc2F)c1Cl
32.3

Give its drug-induced phospholipidosis value. Item: CCn1c2ccccc2c2cc(CNC)ccc21
97.2

Give its drug-induced phospholipidosis value. Item: Cn1cc(C2=C(c3ccc(Cl)cc3Cl)C(=O)NC2=O)c2ccccc21
107

Further cases:
Give its drug-induced phospholipidosis value. Item: Cc1cccc(Nc2nc(-c3ccncc3)cs2)c1
57.3

----------
# Tested on: Vero E6
# Test: relative viability EC50 (midpoint between 100% and the lowest measured viability); higher = less toxic
# Condition context: 72 h
Item-by-item account of relative viability EC50

Give its relative viability EC50 value. Item: Cl/C(=C\n1cncn1)c1ccc(Cl)cc1Cl
> 10 µM

Give its relative viability EC50 value. Item: Cc1cc(O)c2c(c1)C(=O)c1cccc(O)c1C2=O
> 10 µM

Give its relative viability EC50 value. Item: CNCc1ccc(C)c(NC(=O)c2ccc(Nc3nc(-c4ccccc4)c4ccccc4n3)cc2)c1
2.94 µM

Give its relative viability EC50 value. Item: COc1cccc(-n2nc(C(=O)O)cc2-c2ccc(C3CCCCC3)c(Cl)c2)c1
> 10 µM

// switching to the query molecule
Give its relative viability EC50 value. Item: NC(=O)Cc1cccc(C(=O)c2ccccc2)c1N
> 10 µM

----------
# Tested on: HepG2
# Test: cell viability relative to DMSO; higher = less toxic
# Condition context: 72 h; 10000 nM
Measured endpoint: cell viability (%)
# number only, unit % dropped from output

Some solved cases for reference:
Give its cell viability value. Item: C/C=C1/[C@H](O[C@@H]2O[C@H](CO)[C@@H](O)[C@H](O)[C@H]2O)OC=C(C(=O)OC)[C@H]1CC(=O)OCCc1ccc(O)c(O)c1 [oleuropein]
84.4

Give its cell viability value. Item: CN1CCCC(n2nc(Cc3ccc(Cl)cc3)c3ccccc3c2=O)CC1 (centres undefined) [azelastine]
89.2

Give its cell viability value. Item: Cc1cc(O)c2c(c1)C(=O)c1cccc(O)c1C2=O [chrysophanic-acid]
105

Give its cell viability value. Item: C[C@H](N)C(=O)N[C@@H](CCC(N)=O)C(=O)O [dipeptamin]
96.1

Give its cell viability value. Item: CCS(=O)(=O)c1ccc2oc(-c3ccc4ccccc4c3)nc2c1 [ezutromid]
94.3

// switching to the query compound
Give its cell viability value. Item: NC(=O)Cc1cccc(C(=O)c2ccccc2)c1N [nepafenac]
105

----------
# System: HepG2
# Test: cell viability relative to DMSO; higher = less toxic
# Condition context: 72 h; 1000 nM
Measured endpoint: cell viability (%)
# number only, unit % dropped from output

Some solved cases for reference:
Hello, I am looking for reported cell viability with HepG2 for COC(=O)[C@H]1[C@H]2C[C@@H]3c4[nH]c5cc(OC)ccc5c4CCN3C[C@H]2C[C@@H](OC(=O)c2cc(OC)c(OC)c(OC)c2)[C@@H]1OC . Could you help?
96

Hello, I am looking for reported cell viability with HepG2 for CC(C)=CCC[C@](C)(O[C@@H]1O[C@H](CO)[C@@H](O)[C@H](O)[C@H]1O)[C@H]1CC[C@]2(C)[C@@H]1[C@H](O)C[C@@H]1[C@@]3(C)CC[C@H](O)C(C)(C)[C@@H]3CC[C@]12C [ginsenoside-C-K] . Could you help?
92.7

Hello, I am looking for reported cell viability with HepG2 for CC[C@@H](CO)NC(=O)[C@@H]1C=C2c3cccc4[nH]cc(c34)C[C@H]2N(C)C1 . Could you help?
110

Further cases:
Hello, I am looking for reported cell viability with HepG2 for Cc1cccc(Nc2nc(-c3ccncc3)cs2)c1 . Could you help?
94.1

Hello, I am looking for reported cell viability with HepG2 for CNCCc1ccc(O)c(O)c1 [deoxyepinephrine] . Could you help?
91.8

Hello, I am looking for reported cell viability with HepG2 for CNC(=O)c1c(F)cccc1Nc1nc(Nc2cc3c(cc2OC)CCN3C(=O)CN(C)C)nc2[nH]ccc12 . Could you help?
53

Hello, I am looking for reported cell viability with HepG2 for Cc1nccn1CC1CCc2c(c3ccccc3n2C)C1=O (configuration not stated) . Could you help?
105

----------
Item-by-item account of cell viability
# System: U2OS
# Test: cell viability relative to DMSO; higher = less toxic
# Condition context: 72 h; 1000 nM
# number only, unit % dropped from output

Give its cell viability value. Item: Cc1nn(C)c2nc(NNC(=O)Nc3cc(Cl)nc(Cl)c3)cc(C(C)C)c12
93.6

Give its cell viability value. Item: Cc1cccc(Nc2nc(-c3ccncc3)cs2)c1
98.5

Give its cell viability value. Item: C[C@]12C=CC(=O)C=C1CC[C@@H]1[C@@H]2[C@@H](O)C[C@@]2(C)[C@H]1CC[C@]2(O)C(=O)COP(=O)(O)O [prednisolone-sodium-phosphate]
90.8

Give its cell viability value. Item: Cc1ccc(-c2n[nH]c3c2C(c2cccc(O)c2)N(c2ccc(C(=O)O)cc2)C3=O)cc1 (centres undefined)
99.7

Give its cell viability value. Item: CC(C)c1cnn2c(NCc3ccccc3)cc(NCCCCCCN)nc12
96.1

Give its cell viability value. Item: COc1cccc(OC)c1C(=O)N[C@@H]1C(=O)N2[C@@H]1SC(C)(C)[C@@H]2C(=O)O
99

Further cases:
Give its cell viability value. Item: Cc1[nH]c2ccc(F)cc2c1-c1nc2c3cccnc3c3ncccc3c2[nH]1
80.1

Give its cell viability value. Item: Cn1cc(C(=O)C(=O)N[C@H]2CN3CCC2CC3)c2ccccc21
101

Give its cell viability value. Item: CCC(COC(=O)c1cc(OC)c(OC)c(OC)c1)(c1ccccc1)N(C)C (centres undefined)
97.2

Give its cell viability value. Item: N=C(N)c1cc2ccc(OC(=O)c3cccs3)cc2s1
95.9

Give its cell viability value. Item: CCCc1nc(C)c2c(=O)nc(-c3cc(S(=O)(=O)N4CCN(CC)CC4)ccc3OCC)[nH]n12
99.1

Give its cell viability value. Item: COc1ccc(CCN2CCN(CCCc3ccccc3)CC2)cc1OC
93.5

Give its cell viability value. Item: CCn1cc(C(=O)O)c(=O)c2cc3c(cc21)OCO3
103

Give its cell viability value. Item: Cc1ncc(C[n+]2csc(CCOP(=O)(O)OP(=O)(O)O)c2C)c(N)n1 [thiamine-pyrophosphate]
95.9
